# assay.target: UniProt P34972
# Sequence (P34972 whole entry): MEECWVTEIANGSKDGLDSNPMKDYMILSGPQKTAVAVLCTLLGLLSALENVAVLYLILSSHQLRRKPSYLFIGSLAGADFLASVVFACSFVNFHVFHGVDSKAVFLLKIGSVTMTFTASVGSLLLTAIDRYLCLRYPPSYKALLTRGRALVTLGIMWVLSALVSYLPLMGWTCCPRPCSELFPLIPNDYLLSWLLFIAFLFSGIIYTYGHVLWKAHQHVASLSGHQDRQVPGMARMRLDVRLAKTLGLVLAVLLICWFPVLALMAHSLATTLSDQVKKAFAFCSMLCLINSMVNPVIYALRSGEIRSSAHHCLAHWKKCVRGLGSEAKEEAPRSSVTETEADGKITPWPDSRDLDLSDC
pKi: −log10 of the molar value.
Record 1 whenever pKi is at 7 or higher; record -1 when lower.

Some entries whose results are on file:
{"columns": ["molecule", "assay.target", "label.class"],
 "data": [
  ["FC1(F)CCN(c2nc(C(F)(F)c3ccccc3)nc3c2nnn3Cc2ccccc2CCSSc2ccccn2)C1", "UniProt P34972", -1],
  ["CC(C)(C)c1nc(N2CCC(F)(F)C2)c2nnn(Cc3ccccc3CCSSCCO)c2n1", "UniProt P34972", 1],
  ["Cc1nonc1Cn1nnc2c(N3CCC(N=C=S)C3)nc(C(C)(C)C)nc21 (centres unmarked)", "UniProt P34972", -1],
  ["O=S(=O)(F)c1ccccc1Cn1nnc2c(N3CC[C@H](O)C3)nc(C(F)(F)c3ccccc3)nc21", "UniProt P34972", -1],
  ["CC(C)(C)c1nc(N2CCC(F)(F)C2)c2nnn(Cc3ccccc3CCS(=O)(=O)n3nnc4ccccc43)c2n1", "UniProt P34972", -1],
  ["CC(C)(C)c1nc(N2CC(S)C2)c2nnn(Cc3ccccc3Cl)c2n1", "UniProt P34972", -1],
  ["CSSC1CCN(c2nc(C(F)(F)c3ccccc3)nc3c2nnn3Cc2ccccc2Cl)C1 (centres unmarked)", "UniProt P34972", -1],
  ["NCCSSCCc1ccccc1Cn1nnc2c(N3CCC(F)(F)C3)nc(C(F)(F)c3ccccc3)nc21", "UniProt P34972", -1],
  ["FC(F)(c1ccccc1)c1nc(N2CCC(N=C=S)C2)c2nnn(Cc3ccccc3Cl)c2n1 (centres unmarked)", "UniProt P34972", -1],
  ["O=S(=O)(F)c1ccccc1Cn1nnc2c(N3CCC(F)(F)C3)nc(C(F)(F)c3ccccc3)nc21", "UniProt P34972", -1]
]}

Hello, I need to know if CC(C)(C)c1nc(N2CC[C@H](S)C2)c2nnn(Cc3ccccc3Cl)c2n1 (single isomer, unassigned) has measured pKi not below 7. Thanks!
-1

Hello, I need to know if CC(C)(C)c1nc(N2CCC(F)(F)C2)c2nnn(Cc3ccccc3S(=O)(=O)F)c2n1 has measured pKi not below 7. Thanks!
1

Hello, I need to know if CC(C)(C)c1nc(N2CC[C@@H](S)C2)c2nnn(Cc3ccccc3Cl)c2n1 (single isomer, unassigned) has measured pKi not below 7. Thanks!
-1

Hello, I need to know if CC(C)(C)c1nc(N2CCC(F)(F)C2)c2nnn(Cc3ccccc3N=C=S)c2n1 has measured pKi not below 7. Thanks!
-1

Hello, I need to know if CC(C)(C)c1nc(N2CCC(F)(F)C2)c2nnn(Cc3ccccc3CSSCCO)c2n1 has measured pKi not below 7. Thanks!
1

----------
# assay.target: human CB1 receptor (CNR1) (Homo sapiens (Human), UniProt P21554)
# Sequence (P21554 whole entry): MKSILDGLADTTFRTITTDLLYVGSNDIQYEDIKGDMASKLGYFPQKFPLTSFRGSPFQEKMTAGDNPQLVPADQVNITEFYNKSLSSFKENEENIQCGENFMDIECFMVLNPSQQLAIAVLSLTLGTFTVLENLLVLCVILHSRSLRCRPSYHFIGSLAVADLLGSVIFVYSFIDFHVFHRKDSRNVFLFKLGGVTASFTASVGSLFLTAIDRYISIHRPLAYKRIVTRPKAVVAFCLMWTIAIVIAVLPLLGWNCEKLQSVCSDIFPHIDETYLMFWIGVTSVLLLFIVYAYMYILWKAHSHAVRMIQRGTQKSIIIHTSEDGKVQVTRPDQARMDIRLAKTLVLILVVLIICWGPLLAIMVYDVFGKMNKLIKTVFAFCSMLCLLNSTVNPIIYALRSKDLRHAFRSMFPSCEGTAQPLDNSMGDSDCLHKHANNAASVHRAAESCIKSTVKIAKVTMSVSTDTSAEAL
measurement.label: Ki (µM)
Give bare numbers, in µM.

Examples from the recorded data:
{"columns": ["compound", "Ki, µM"],
 "data": [
  ["CC(C)(C)c1nc(N2CCC(F)(F)C2)c2nnn(Cc3ccccc3S(=O)(=O)F)c2n1", 0.931],
  ["Cc1nonc1Cn1nnc2c(N3CCC(N=C=S)C3)nc(C(F)(F)c3ccccc3)nc21 (centres unmarked)", 1.45],
  ["CC(C)(C)c1nc(N2CCC(F)(F)C2)c2nnn(Cc3ccccc3CCS(=O)(=O)F)c2n1", 1.36],
  ["CC(C)(C)c1nc(N2CCC(F)(F)C2)c2nnn(Cc3ccccc3CCSSc3ccccn3)c2n1", 1.86]
]}

Query (compound): CC(C)(C)c1nc(N2CCC(F)(F)C2)c2nnn(Cc3ccccc3CSSCCO)c2n1 ; field requested: Ki
0.211
